Source listed as patent US20210284709A1.

# testSystem: T1, HLA-A2/E7(11-19) tetramer (human; HPV 16)
# T1 construct: also called E7(11-19) peptide-MHC tetramer; E7 tet
# experimentalDetails: flow cytometry, tetramer + anti-CD8; transfected mix of CD8- and CD8+ Jurkat-derived cells;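 also: cells transiently transfected with TCR-encoding plasmids, analysed 48 h afterwards by co-staining with HLA-A*02:01 peptide tetramer and anti-CD8 antibody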
propertyName: % cells E7 tet+/CD8+ quadrant

binder	recordedMeasurement
TCR 41 (codon-optimized, cysteine-modified) (TCR, V domains shown) V domain 1: RKEVEQDPGPFNVPEGATVAFNCTYSNSASQSFFWYRQDCRKEPKLLMSVYSSGNEDGRFTAQLNRASQYISLLIRDSKLSDSATYLCVVTFALTGGFKTIFGAGTRLFVKA V domain 2: EPEVTQTPSHQVTQMGQEVILRCVPISNHLYFYWYRQILGQKVEFLVSFYNNEISEKSEIFDDQFSVERPDGSNFTLKIRSTKLEDSAMYFCASNPRDRVSYEQYFGPGTRLTVTE	6.07%
TCR 51 (codon-optimized, cysteine-modified) (TCR, V domains shown) V domain 1: QKEVEQNSGPLSVPEGAIASLNCTYSDRGSQSFFWYRQYSGKSPELIMSIYSNGDKEDGRFTAQLNKASQYVSLLIRDSQPSDSATYLCAVNMRGGGSNYKLTFGKGTLLTVNP V domain 2: EPEVTQTPSHQVTQMGQEVILRCVPISNHLYFYWYRQILGQKVEFLVSFYNNEISEKSEIFDDQFSVERPDGSNFTLKIRSTKLEDSAMYFCAIASRVSYEQYFGPGTRLTVTE	5.7%
TCR 42 (codon-optimized, cysteine-modified) (TCR, V domains shown) V domain 1: GQQVMQIPQYQHVQEGEDFTTYCNSSTTLSNIQWYKQRPGGHPVFLIQLVKSGEVKKQKRLTFQFGEAKKNSSLHITATQTTDVGTYFCAGPDNFNKFYFGSGTKLNVKP V domain 2: EPEVTQTPSHQVTQMGQEVILRCVPISNHLYFYWYRQILGQKVEFLVSFYNNEISEKSEIFDDQFSVERPDGSNFTLKIRSTKLEDSAMYFCAKTSRSSYEQYFGPGTRLTVTE	1.21%
TCR 33 (codon-optimized, cysteine-modified) (TCR, V domains shown) V domain 1: QKEVEQNSGPLSVPEGAIASLNCTYSDRGSQSFFWYRQYSGKSPELIMFIYSNGDKEDGRFTAQLNKASQYVSLLIRDSQPSDSATYLCAVNAHHTGGFKTIFGAGTRLFVKA V domain 2: EPEVTQTPSHQVTQMGQEVILRCVPISNHLYFYWYRQILGQKVEFLVSFYNNEISEKSEIFDDQFSVERPDGSNFTLKIRSTKLEDSAMYFCASTPRDTYEQYFGPGTRLTVTE	22.6%
TCR 35 (codon-optimized, cysteine-modified) (TCR, V domains shown) V domain 1: KDQVFQPSTVASSEGAVVEIFCNHSVSNAYNFFWYLHFPGCAPRLLVKGSKPSQQGRYNMTYERFSSSLLILQVREADAAVYYCAVAGDYKLSFGAGTTVTVRA V domain 2: DSGVTQTPKHLITATGQRVTLRCSPRSGDLSVYWYQQSLDQGLQFLIQYYNGEERAKGNILERFSAQQFPDLHSELNLSSLELGDSALYFCASTTSGDSSYNEQFFGPGTRLTVLE	14.5%
TCR 31 (codon-optimized, cysteine-modified) (TCR, V domains shown) V domain 1: DQQVKQNSPSLSVQEGRISILNCDYTNSMFDYFLWYKKYPAEGPTFLISISSIKDKNEDGRFTVFLNKSAKHLSLHIVPSQPGDSAVYFCAASERGTYKYIFGTGTRLKVLA V domain 2: GAGVSQSPSNKVTEKGKDVELRCDPISGHTALYWYRQSLGQGLEFLIYFQGNSAPDKSGLPSDRFSAERTGGSVSTLTIQRTQQEDSAVYLCASSRFLGSTDTQYFGPGTRLTVLE	4.52%
TCR 49 (codon-optimized, cysteine-modified) (TCR, V domains shown) V domain 1: QKEVEQNSGPLSVPEGAIASLNCTYSDRGSQSFFWYRQYSGKSPELIMFIYSNGDKEDGRFTAQLNKASQYVSLLIRDSQPSDSATYLCAVNIGTSGTYKYIFGTGTRLKVLA V domain 2: EPEVTQTPSHQVTQMGQEVILRCVPISNHLYFYWYRQILGQKVEFLVSFYNNEISEKSEIFDDQFSVERPDGSNFTLKIRSTKLEDSAMYFCASTPRYSYEQYFGPGTRLTVTE	5.54%
